Organism: Mus musculus
Test: Compound was evaluated for 50% inhibition of DNA synthesis in Ehrlich ascites tumor cells by irradiation (365 nM) at 1.9 x 10e -5M incubated with [3H]thymidine at 37 degree C (p 0.05)
Assay type: functional
EXPERIMENTAL_ENDPOINT: ID50 (quanta)
// units = quanta; emit number, no label

Cc1cc(=O)oc2c1cc(C)c1occ(C)c12    6e+16
Cc1cc2c(o1)c(C)cc1c(C)cc(=O)oc12    3.87e+18
Cc1c(C)c2occc2c2oc(=O)ccc12    3e+19
Cc1cc2c(o1)c(C)c(C)c1ccc(=O)oc12    3e+19

Read the entry Cc1cc2c(o1)c(C)cc1ccc(=O)oc12 and write its reported ID50.
1.19e+19

Read the entry Cc1cc(=O)oc2c1cc(C)c1occc12 and write its reported ID50.
4e+18
